Taken from paper PMC3509583.

biological target: UniProt O14958; assay: Isothermal titration calorimetry (ITC) of drug binding to hCASQ2, with or without caffeine; settings: hCASQ2, titration in the absence of caffeine (Supplemental Fig. 2); read-out: Dissociation constant (Kd)
Sequence (O14958 20-399): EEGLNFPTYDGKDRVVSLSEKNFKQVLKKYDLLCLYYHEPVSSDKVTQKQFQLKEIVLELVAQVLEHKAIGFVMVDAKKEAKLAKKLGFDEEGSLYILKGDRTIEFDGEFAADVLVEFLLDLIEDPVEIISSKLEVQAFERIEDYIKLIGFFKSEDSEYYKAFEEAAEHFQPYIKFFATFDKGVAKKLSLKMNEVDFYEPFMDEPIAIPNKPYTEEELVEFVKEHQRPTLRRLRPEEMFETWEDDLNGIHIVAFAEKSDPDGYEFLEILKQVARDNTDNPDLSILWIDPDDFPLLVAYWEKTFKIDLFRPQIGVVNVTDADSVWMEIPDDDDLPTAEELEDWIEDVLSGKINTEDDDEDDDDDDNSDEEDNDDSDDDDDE
QUANTITY: pKd
Interpret pKd as the negative base-10 log of the concentration measured in mol/L.

INSERT INTO results (molecule, observed_value) VALUES
  ('COc1ccc([C@@H]2Sc3ccccc3N(CCN(C)C)C(=O)[C@@H]2OC(C)=O)cc1', 4.39),
  ('CN(C)CCCN1c2ccccc2Sc2ccc(Cl)cc21', 3.99),
  ('CN1CCN(CCCN2c3ccccc3Sc3ccc(C(F)(F)F)cc32)CC1', 4.44);

Moving on to the next molecule.
stdin: Please report the recorded pKd for CSc1ccc2c(c1)N(CCC1CCCCN1C)c1ccccc1S2 (stereo not shown) .
stdout: 4.66
